Measured values drawn from the supplement of paper PMC9694430 for this set.

- Tested on: LOC_OS04G38480-cb003
- Sequence (as listed by the source): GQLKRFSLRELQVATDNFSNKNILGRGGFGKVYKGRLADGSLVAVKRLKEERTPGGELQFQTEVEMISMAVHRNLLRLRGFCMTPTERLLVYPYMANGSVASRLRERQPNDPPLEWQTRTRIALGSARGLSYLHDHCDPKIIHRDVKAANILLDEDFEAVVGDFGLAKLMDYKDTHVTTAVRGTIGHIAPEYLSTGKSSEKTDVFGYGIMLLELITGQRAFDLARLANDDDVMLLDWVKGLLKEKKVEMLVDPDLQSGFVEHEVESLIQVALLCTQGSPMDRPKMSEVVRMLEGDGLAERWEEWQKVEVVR
- ASSAY OVERVIEW: thermal shift delta Tm vs DMSO control; higher = stronger stabilization (binding);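 note: purified Escherichia coli-expressed rice kinase domain construct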
- STATED CONDITIONS: 12.5 µM; protein concentration 2 µM
PROPERTY: thermal shift delta Tm (°C)
Give the quantity in °C, number only.

Use these answered entries as a reference point.
Cn1cc(/C=C2\C(=O)Nc3cccnc32)c2ccccc21 ... 3.05
C[S+]([O-])c1ccc(-c2nc(-c3ccc(F)cc3)c(-c3ccncc3)[nH]2)cc1 (configuration not stated) ... 1.26
COc1cc(N2CCN(C)CC2)ccc1Nc1ncc2c(n1)N(C)c1ccccc1C(=O)N2 ... 1.14
CCN(CC)CCNC(=O)c1c(C)[nH]c(/C=C2\C(=O)Nc3ccc(F)cc32)c1C [Sunitinib Malate] ... 2.16
COc1cc2nccc(Oc3ccc(NC(=O)Nc4cc(C)on4)c(Cl)c3)c2cc1OC ... 4.03

[in] Given the molecule `O=C1NC(=O)/C(=C/c2ccc3nccc(-c4ccncc4)c3c2)S1` , what is its reported thermal shift delta Tm?
[out] 1.96

[in] Need thermal shift delta Tm, item `CS(=O)(=O)CCNCc1ccc(-c2ccc3ncnc(Nc4ccc(OCc5cccc(F)c5)c(Cl)c4)c3c2)o1`
[out] 3.11

[in] Recorded thermal shift delta Tm of `COc1ccc(-c2ccc3c(N4CCOCC4)nc(N4C[C@@H](C)O[C@@H](C)C4)nc3n2)cc1CO` , please.
[out] 0.34

[in] Returns the measured thermal shift delta Tm for the input molecule. Input: `O=C(O)c1ccc(Nc2ncc3c(n2)-c2ccc(Cl)cc2C(c2c(F)cccc2F)=NC3)cc1`
[out] 0.01

[in] Report thermal shift delta Tm for `COc1cc2c(N3CCN(C(=O)Nc4ccc(OC(C)C)cc4)CC3)ncnc2cc1OCCCN1CCCCC1` please.
[out] 1.79

[in] Quick one: thermal shift delta Tm for `Cc1c(C(=O)N2CCOc3ccc(-c4ccc(N)nc4)cc3C2)ccc(S(C)(=O)=O)c1F` ?
[out] 0.22

[in] Form field: reported thermal shift delta Tm of `FC(F)(F)c1ccc(CNc2ccc(Cc3c[nH]c4ncc(Cl)cc34)cn2)cn1`
[out] 4.16

----------
- Test system: LOC_OS03G50810-cb003
- ASSAY OVERVIEW: thermal shift delta Tm vs DMSO control; higher = stronger stabilization (binding)
- STATED CONDITIONS: 12.5 µM; protein concentration 2 µM
PROPERTY: thermal shift delta Tm (°C)
The answer is to be given in °C; state only the numeric part.

# example entries with known answers
CC[C@@H]1C(=O)N(C)c2cnc(Nc3ccc(C(=O)N[C@H]4CC[C@H](N5CCN(CC6CC6)CC5)CC4)cc3OC)nc2N1C(C)C ... 0.54
CC(C)c1cnn2c(NCc3ccccc3-n3cccn3)nc(OC3CCCNC3)nc12 (configuration not stated) ... 0.5
CS(=O)(=O)CCNCc1ccc(-c2ccc3ncnc(Nc4ccc(OCc5cccc(F)c5)c(Cl)c4)c3c2)o1 [Lapatinib] ... 1.16
NC(=O)c1ncn([C@@H]2O[C@H](CO)[C@@H](O)[C@H]2O)c1N ... 0.55

[in] Checklist item: thermal shift delta Tm tested on LOC_OS03G50810-cb003, entry Cc1cccc(Nc2nc(NC3CCCCC3N)ncc2C(N)=O)c1 (configuration not stated) , value?
[out] 1.34

[in] What is its thermal shift delta Tm for LOC_OS03G50810-cb003? Entry: `O=C1Nc2ccccc2/C1=C1/Nc2ccccc2C1=O`
[out] 1.48

[in] Give thermal shift delta Tm (LOC_OS03G50810-cb003) of the following compound: CN1CC(O)C2=C/C(=N/NC(N)=O)C(=O)C=C21 (configuration not stated)
[out] 0.41

[in] Query thermal shift delta Tm on LOC_OS03G50810-cb003 for `CCCS(=O)(=O)Nc1ccc(F)c(C(=O)c2c[nH]c3ncc(Cl)cc23)c1F`
[out] 0.43

[in] Report thermal shift delta Tm for `c1cncc(CN2CCC(n3ncc4c(N5CCOCC5)nc(-c5ccc6[nH]ccc6c5)nc43)CC2)c1` tested on LOC_OS03G50810-cb003.
[out] 0.65

[in] Give thermal shift delta Tm (LOC_OS03G50810-cb003) of the following compound: `O=C1CCc2c(Oc3ccc4c(c3)[C@@H]3[C@H](O4)[C@H]3c3nc4cc(C(F)(F)F)ccc4[nH]3)ccnc2N1`
[out] 0.57

[in] Look up thermal shift delta Tm with LOC_OS03G50810-cb003 for this compound: `CC1(C)OC(=O)C=C[C@]2(C)[C@H]3CC[C@@]4(C)[C@H](c5ccoc5)OC(=O)[C@H]5O[C@]54[C@]3(C)C(=O)C[C@@H]12`
[out] 0.54

[in] Hi! What's the reported thermal shift delta Tm for `Oc1cccc(-c2nc(N3CCOCC3)c3oc4ncccc4c3n2)c1` on LOC_OS03G50810-cb003?
[out] 0.16

----------
- System: LOC_OS03G12390-cb001
- ASSAY OVERVIEW: thermal shift delta Tm vs DMSO control; higher = stronger stabilization (binding)
- STATED CONDITIONS: 12.5 µM; protein concentration 2 µM
PROPERTY: thermal shift delta Tm (°C)
Give the quantity in °C, number only.

# example entries with known answers
COc1cc2nccc(Oc3ccc(NC(=O)c4cn(C(C)C)c(=O)n(-c5ccc(F)cc5)c4=O)cc3F)c2cc1OC ... 0.23
COc1ccc(CCNCc2ccc(OCc3ccc(Cl)nc3)c(OC)c2)cc1OC ... -0.53
O=C1Cc2c([nH]c3ccc(Br)cc23)-c2ccccc2N1 ... 5.47

[in] Would you mind telling me what thermal shift delta Tm value was observed for `N#C/C(=C(/N)Sc1ccc(N)cc1)c1ccccc1C(F)(F)F` ?
[out] -0.46

[in] Report thermal shift delta Tm for `COc1cc2c(Nc3ccc(NC(=O)c4ccccc4)cc3)ncnc2cc1OCCCN1CCOCC1` please.
[out] 0.43

[in] Bench note: what thermal shift delta Tm did `COc1ncc(-c2ccc3nccc(-c4ccnnc4)c3c2)cc1NS(=O)(=O)c1ccc(F)cc1F` show?
[out] 0.76

[in] State the recorded thermal shift delta Tm for this entry: CCN(CC)CCCC(C)Nc1nc(C)cc(Nc2ccc3nc(C)cc(N)c3c2)n1 (centres undefined)
[out] -0.21

[in] Returns the measured thermal shift delta Tm for the input compound. Input: Cc1cc(C(C)Nc2ccccc2)c2nc(N3CCOCC3)cc(=O)n2c1 (centres undefined)
[out] -0.12

[in] Record request: thermal shift delta Tm value, item `COc1cc(Nc2ncc(F)c(Nc3ccc4c(n3)NC(=O)C(C)(C)O4)n2)cc(OC)c1OC`
[out] 9.67

----------
The following molecules are listed with their measured thermal shift delta Tm values.
- Test system: LOC_OS01G48390-cb002
- ASSAY OVERVIEW: thermal shift delta Tm vs DMSO control; higher = stronger stabilization (binding)
- STATED CONDITIONS: 12.5 µM; protein concentration 2 µM
State just the number; it will be interpreted in °C.

COc1cc2nccc(Oc3ccc(NC(=O)C4(C(=O)Nc5ccc(F)cc5)CC4)cc3)c2cc1OC [Cabozantinib malate (XL184)] ... 3.62

Shift focus to the following entry.
[in] What thermal shift delta Tm value was documented for this molecule, CC(C)(C)c1cc(/C=C(\C#N)C(N)=S)cc(C(C)(C)C)c1O [Tyrphostin AG 879] ?
[out] 1.74

----------
- System: LOC_OS07G07230-cb001
- ASSAY OVERVIEW: thermal shift delta Tm vs DMSO control; higher = stronger stabilization (binding)
- STATED CONDITIONS: 12.5 µM; protein concentration 2 µM
// reported thermal shift delta Tm for each item listed
Numeric only. Scale: °C

Consider the following illustrative entries.
COc1ccc(S(=O)(=O)N(CCO)c2ccccc2CN(C)C/C=C/c2ccc(Cl)cc2)cc1 [KN-93 Phosphate] ... 0.21
CCn1c(=O)c(-c2ccc(Cl)cc2Cl)cc2cnc(Nc3ccc(N4CCNCC4)c(F)c3)nc21 ... 4.1

[in] Requested read-out: thermal shift delta Tm. Entry: C[S+]([O-])c1ccc(-c2nc(-c3ccc(F)cc3)c(-c3ccncc3)[nH]2)cc1 (centres undefined)
[out] 0.43

[in] Please look up its thermal shift delta Tm: CO[C@H]1C[C@@H]2CC[C@@H](C)[C@@](O)(O2)C(=O)C(=O)N2CCCC[C@H]2C(=O)O[C@H]([C@H](C)C[C@@H]2CC[C@@H](OCCO)[C@H](OC)C2)CC(=O)[C@H](C)/C=C(\C)[C@@H](O)[C@@H](OC)C(=O)[C@H](C)C[C@H](C)/C=C/C=C/C=C/1C [Everolimus (RAD001)]
[out] -1.46

[in] So what does the record say about thermal shift delta Tm for `CCn1cc(-c2ccnc3[nH]c(-c4cccc(CN(C)C)c4)cc23)c(-c2ccc(NC(=O)N(C)C)cc2)n1` ?
[out] 0.42

[in] What does the record list as thermal shift delta Tm for `CN1CCC(Nc2nc(Nc3ccc(Oc4ccccc4)cc3)c3c(=O)[nH]cc(Br)c3n2)CC1` ?
[out] -0.18

[in] Quick one: thermal shift delta Tm for `NC(=O)c1ccc(N(C(N)=O)c2c(F)cccc2F)nc1-c1ccc(F)cc1F` ?
[out] 0.18

[in] Form field: reported thermal shift delta Tm of `COc1cc2ncnc(Nc3cccc(Cl)c3)c2cc1OC`
[out] 0.01

[in] Return reported thermal shift delta Tm; argument: `CC(C)(CCCCCC(O)CCCCCC(C)(C)C(=O)O)C(=O)O`
[out] -0.4
